biological target: Focal adhesion kinase 1 (Homo sapiens) (UniProt Q05397); experiment: small-molecule microarray binders of FAK, primary screen, biochemical, 635/667 nm fluorescence, BSA, DTT (AID 1130); details: PTK2 binding, 635 nm fluorescence, higher = more signal;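 also: composite of spot emission at 667 nm and signal to noise over triplicate slides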
Sequence (Q05397 whole entry, looked up): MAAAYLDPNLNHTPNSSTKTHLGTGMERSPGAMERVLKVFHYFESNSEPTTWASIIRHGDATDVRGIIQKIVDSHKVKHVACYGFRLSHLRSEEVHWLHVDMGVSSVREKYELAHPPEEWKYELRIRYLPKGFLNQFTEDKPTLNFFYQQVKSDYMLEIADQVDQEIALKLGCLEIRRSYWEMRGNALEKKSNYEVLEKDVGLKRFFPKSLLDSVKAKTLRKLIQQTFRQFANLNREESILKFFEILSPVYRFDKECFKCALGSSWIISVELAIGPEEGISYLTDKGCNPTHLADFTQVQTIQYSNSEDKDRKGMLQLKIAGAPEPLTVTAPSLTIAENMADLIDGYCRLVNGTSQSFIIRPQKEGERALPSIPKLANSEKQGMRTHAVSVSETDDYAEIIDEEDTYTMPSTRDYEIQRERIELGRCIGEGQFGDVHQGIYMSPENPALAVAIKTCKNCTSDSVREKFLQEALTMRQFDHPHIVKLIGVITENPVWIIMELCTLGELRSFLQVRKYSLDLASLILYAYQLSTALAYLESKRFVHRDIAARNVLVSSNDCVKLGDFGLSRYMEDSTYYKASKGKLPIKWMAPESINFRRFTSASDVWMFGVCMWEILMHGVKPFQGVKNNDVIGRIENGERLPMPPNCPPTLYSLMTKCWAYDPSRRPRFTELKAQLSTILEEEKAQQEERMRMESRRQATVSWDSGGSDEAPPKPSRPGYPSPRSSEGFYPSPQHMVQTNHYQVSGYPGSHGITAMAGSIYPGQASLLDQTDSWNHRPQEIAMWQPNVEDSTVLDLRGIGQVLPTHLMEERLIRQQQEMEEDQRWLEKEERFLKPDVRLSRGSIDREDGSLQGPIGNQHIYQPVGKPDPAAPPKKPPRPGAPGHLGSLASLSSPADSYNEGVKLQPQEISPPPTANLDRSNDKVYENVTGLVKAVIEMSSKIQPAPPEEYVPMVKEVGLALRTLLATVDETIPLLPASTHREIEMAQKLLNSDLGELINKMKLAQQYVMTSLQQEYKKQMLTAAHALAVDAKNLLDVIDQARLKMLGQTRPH
Would you mind telling me the reported composite z-score of each entry?
No unit in the answer, please; the number alone is enough.

Endpoint output: composite z-score of CCN(CC)c1ccc(N2CC=CC34O[C@@H]5C=CCOC(=O)[C@@H]5[C@H]3C(=O)N(CCO)[C@@H]4C2=O)cc1 (some centres undefined) . Value? -0.856

Endpoint output: composite z-score of CC(C)CNC(=O)[C@@H]1c2ccccc2C(=O)N(C2Cc3ccccc3C2)[C@H]1c1ccc(CO)cc1 . Value? -0.587

Endpoint output: composite z-score of [N-]=[N+]=NCc1ccccc1C[C@]1(C(=O)N2CCOCC2)N=C(c2ccc(OCCCO)cc2)O[C@H]1c1ccccc1CN=[N+]=[N-] . Value? 0.681

Endpoint output: composite z-score of COCCOC(=O)N1C(=O)[C@@]2(c3cc(C#CCC(C(=O)OC)C(=O)OC)ccc31)[C@H](c1ccc(OCCO)cc1)N1[C@H](c3ccccc3)[C@H](c3ccccc3)OC(=O)[C@H]1[C@@H]2C(=O)N1CCCCCCC1 . Value? 0.899

====

target: Luciferin 4-monooxygenase (Photinus pyralis); assay: firefly luciferase enzyme inhibitors, primary screen, biochemical, luminescence, purified enzyme, 2006 set (AID 1141); conditions: SteadyGlo luminescence, 30 min, higher = more signal, called active from +8 up or from −8 down;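 also: cell-free assay with purified firefly luciferase at 100 ng per well in PBS; test concentration not given here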
experimental-readout: z-score
No unit in the answer, please; the number alone is enough.

Endpoint output: z-score of CN(C)C(=O)[C@]1(Cc2ccccc2)N=C(c2ccc(OCCCO)cc2)O[C@@H]1c1ccccc1 . Value? -0.701

Endpoint output: z-score of C=CCOC(=O)[C@H]1[C@@H]2C(=O)O[C@@H](c3ccccc3)[C@@H](c3ccccc3)N2[C@@H](c2ccc(OCCOC(=O)[C@@H]3C[C@@H]4C(=O)N[C@@H](Cc5ccccc5)C(=O)N4[C@@H]3c3ccc(O)cc3)cc2)[C@]12C(=O)Nc1ccccc12 . Value? -0.497

Endpoint output: z-score of [N-]=[N+]=NCc1ccccc1C[C@]1(C(=O)N2CCOCC2)N=C(c2ccc(OCCCO)cc2)O[C@H]1c1ccccc1CN=[N+]=[N-] . Value? -1.25

Endpoint output: z-score of COC(=O)[C@@]1(Cc2ccc(OC)cc2)[C@@H]2[C@@H](CC(=O)[C@H]2CC(=O)C(=O)N2CCCC2)CN1C(=O)c1ccccc1 . Value? 0.596

Endpoint output: z-score of COC(=O)C(CC#Cc1ccc2c(c1)[C@]1(C(=O)N2)[C@H](c2ccc(O)cc2)N2[C@H](c3ccccc3)[C@H](c3ccccc3)OC(=O)[C@H]2[C@@H]1C(=O)N1CCc2cc(OC)c(OC)cc2C1)C(=O)OC . Value? -0.0494

Endpoint output: z-score of C=CCC(OC(C)=O)[C@@H]1[C@@H](N(Cc2ccc(-c3cccc(C(F)(F)F)c3)o2)C(=O)c2cccc3ccccc23)c2cc(OCCCO)ccc2N1C(=O)c1ccc2ccccc2c1 (stereo partly specified) . Value? 1.05

====

assay: MM1S myeloma cell viability, profiling panel, resazurin fluorescence, basal, 24 h, PK04 Diversity Set (AID 1174); conditions: higher = more signal, called active from +8 up or from −8 down;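 also: MM1S multiple myeloma cell line; test concentration not given here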
Would you mind telling me the reported z-score of each entry?
No unit in the answer, please; the number alone is enough.

Endpoint output: z-score of COC(=O)C1(CC(C)C)C=C2C(=C(C(C)C)C(=O)C2C)CN1 (centres undefined) . Value? -1.56

Endpoint output: z-score of CN(C)CCCC[C@@H]1NC(=O)[C@H]2C[C@@H](C(=O)NCc3ccc(F)cc3)[C@@H](c3ccc(O)cc3)N2C1=O . Value? 0.766

Endpoint output: z-score of C=C(COC)/C(=C/C[C@@H](OC(C)=O)c1ccccc1OCCO)c1cc(C(=O)OC)ccc1OC . Value? -0.705

Endpoint output: z-score of C=CCC(OC(C)=O)[C@@H]1[C@@H](N(Cc2cccc3ccccc23)C(=O)c2ccc(C)cc2)c2cc(OCCCO)ccc2N1C(=O)c1ccc2ccccc2n1 (some centres undefined) . Value? 0.36

Values from PubChem BioAssay
